The reported measurements were obtained from BigSolDB 2.1.

- conditions: in THF, 303.15 K
outcomeMeasure: solubility (mole fraction)
Give your answer as a number; write no unit.

According to the records, this compound O=[N+]([O-])c1ncccc1O displays solubility (mole fraction) of 0.396

* * *

- conditions: in acetonitrile, 318.15 K
outcomeMeasure: solubility (mole fraction)

Summary for this compound, O=[N+]([O-])c1ncccc1O : solubility (mole fraction) is 0.502

* * *

- conditions: in isopropanol, 293.15 K
outcomeMeasure: solubility (mole fraction)
Lab note: jot the number down without any unit.

Entry under test: O=[N+]([O-])c1ncccc1O . Its solubility (mole fraction) was 0.0442

* * *

- conditions: in acetone, 283.15 K
outcomeMeasure: solubility (mole fraction)

Consider O=[N+]([O-])c1ncccc1O . Its measured solubility (mole fraction) is 0.184

* * *

- conditions: in THF, 298.15 K
outcomeMeasure: solubility (mole fraction)
Quick one: just the number, no unit, thanks!

What the record says about O=[N+]([O-])c1ncccc1O : solubility (mole fraction) is 0.35

* * *

- conditions: in THF, 283.15 K
outcomeMeasure: solubility (mole fraction)
Provide a numeric answer; units are not to be included.

Data point: O=[N+]([O-])c1ncccc1O ; solubility (mole fraction) = 0.243

* * *

- conditions: in ethanol, 288.15 K
outcomeMeasure: solubility (mole fraction)

The reported solubility (mole fraction) of the compound O=[N+]([O-])c1ncccc1O was 0.0482

* * *

- conditions: in n-hexane, 318.15 K
outcomeMeasure: solubility (mole fraction)
Keep it simple and answer with nothing but the number.

According to the records, this molecule O=[N+]([O-])c1ncccc1O displays solubility (mole fraction) of 0.00736

* * *

- conditions: in water, 288.15 K
outcomeMeasure: solubility (mole fraction)

Recorded solubility (mole fraction) (compound O=[N+]([O-])c1ncccc1O ): 0.00149

* * *

- conditions: in THF, 313.15 K
outcomeMeasure: solubility (mole fraction)

Data point: O=[N+]([O-])c1ncccc1O ; solubility (mole fraction) = 0.502

* * *

- conditions: in ethyl acetate, 278.15 K
outcomeMeasure: solubility (mole fraction)
Answer field: number only, no words.

Briefly, solubility (mole fraction) measured for O=[N+]([O-])c1ncccc1O : 0.108

* * *

- conditions: in acetonitrile, 308.15 K
outcomeMeasure: solubility (mole fraction)
Write the value as a bare number.

Recorded solubility (mole fraction) (compound O=[N+]([O-])c1ncccc1O ): 0.359
